Listed here: items and their measured inhibition at 0.03 µM.
- Study target: human recombinant adrenergic α2A receptor (Homo sapiens)
- Construct: expressed in transfected cells; host or cells: insect Sf9 cells
- Sequence (P08913 1-465): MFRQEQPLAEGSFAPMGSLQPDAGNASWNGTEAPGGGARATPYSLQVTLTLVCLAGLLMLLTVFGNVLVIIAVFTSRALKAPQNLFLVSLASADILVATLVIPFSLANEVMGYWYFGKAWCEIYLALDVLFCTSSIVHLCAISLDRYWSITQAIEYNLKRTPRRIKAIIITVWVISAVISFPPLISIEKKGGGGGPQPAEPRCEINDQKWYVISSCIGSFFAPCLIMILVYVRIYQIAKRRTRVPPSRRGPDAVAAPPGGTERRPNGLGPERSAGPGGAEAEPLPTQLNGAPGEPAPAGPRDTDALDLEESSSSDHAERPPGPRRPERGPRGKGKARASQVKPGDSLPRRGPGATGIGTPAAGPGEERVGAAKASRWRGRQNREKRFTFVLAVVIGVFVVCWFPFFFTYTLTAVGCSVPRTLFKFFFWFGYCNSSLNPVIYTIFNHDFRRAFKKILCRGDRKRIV
- Assay explanation: Radioligand binding, adrenergic α2A ([3H]MK-912)
- Test settings: read-out: Percentage inhibition of ligand binding, Adrenergic α2A (0.03 μM), compound at 0.03 μM; [3H]MK-912; repeat datapoints each shown
Hi! Could you send only the number? It should be in %, unit omitted.

Examples with their reported inhibition at 0.03 µM follow.
{"columns": ["Compound", "Unit info", "inhibition at 0.03 µM"],
 "data": [
  ["C/C(=C\\n1c2c(c3cc(Cl)ccc31)CN(C)CC2)c1ccncc1", "%", 37],
  ["Cc1ccc2c(c1)c1c(n2CC(C)(O)c2ccc(F)cc2)CCN2CCCC12 (single isomer, unassigned) [II-121a]", "%", 65],
  ["Cc1ccc2c(c1)c1c(n2CCc2ccccc2)CCN(C)C1", "%", 81]
]}

Could you tell me which inhibition at 0.03 µM is on file for Cc1ccc(C(C)(O)Cn2c3c(c4cc(Cl)ccc42)CN(C)CC3)cn1 (single isomer, unassigned) [93a] ? 14

Could you tell me which inhibition at 0.03 µM is on file for "CN1CCc2c(c3cccc(Cl)c3n2CCc2ccccc2)C1" ? 58
